- ASSAY_SYSTEM: T1, RAPGEF6, Q8TEU7
- T1 sequence (Q8TEU7 525-625, limits assumed, looked up): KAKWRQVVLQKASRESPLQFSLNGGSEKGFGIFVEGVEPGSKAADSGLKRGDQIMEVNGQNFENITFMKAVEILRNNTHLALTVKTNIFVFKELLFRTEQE
- EXPERIMENT_DESCRIPTION: holdup assay
- Set-up: key: below the threshold = too weak to quantify, mostly under pKd 3.1 to 4
- ASSAY_CONTEXT: plain residues with an end cap or a label only (N-terminal biotin on a linker: ado-ado)
MEASURED_ATTRIBUTE: pKd

binder="PRISRSQSEL [CCDC134, Q9H6E4]" result="below the threshold"
binder="QSARLWETSI [ADAM22, Q9P0K1]" result="below the threshold"
binder="SKSNFGSEPL [KIF17, Q9P2E2]" result="below the threshold"
binder="LSEFKAMDSI [CTNNA1, P35221]" result="below the threshold"
binder="LKVPPEERLI [CRB2, Q5IJ48]" result="below the threshold"
binder="SKENVQETQI [LRRC4B, Q9NT99]" result=3.52
binder="EALLQMESVA [CAVIN3, Q969G5]" result="below the threshold"
binder="SARSRLSSNL [HCN2, Q9UL51]" result="below the threshold"
binder="PEYLGLDVPV [ERBB2, P04626]" result="below the threshold"
binder="CLREWCDAFL [BANF1, O75531]" result=3.47
binder="MLSKQSESAI [FLVCR1, Q9Y5Y0]" result="below the threshold"
binder="SSALYGESDL [ACTN2, P35609]" result=3.6
binder="VNKSKLLTDV [KCNA1, Q09470]" result=3.53
binder="YLEPVLSSEL [ATP2A2, P16615;P16615-3]" result="below the threshold"
binder="GNSVLKSTQF [SLC22A12, Q96S37]" result="below the threshold"
binder="LRSPRTPSEV [OR10G3, Q8NGC4]" result="below the threshold"
